Recorded measurements of pIC50, one per entry
tested on: Rat fibroblasts (CREF); assay: Peg3 promoter luciferase inhibitors, potency, dose response, cell-based, HeLa, CREF/GAPDH counter-screen panel (AID 624167); conditions: CREF/GAPDH counter-screens, run 1, dose range 1, individual replicate IC50 per panel
pIC50: −log10 of the molar value.

// below: answered compounds
C/C(=N\NC(=O)c1c(C)nc2ccccn12)c1ccc(O)cc1O = < 4.00
O=C(Nc1ccccc1C(=O)Nc1nnc(C(F)(F)F)s1)c1ccccc1 = < 4.00

// pIC50 value for O=c1c2ccccc2sc2nc(CCl)nn12 : < 4.00

====

system: PEG-3; test: Peg3 promoter luciferase inhibitors, potency, dose response, cell-based, HeLa, CREF/GAPDH counter-screen panel (AID 624167); settings: HeLa PEG-Prom luciferase reporter, overnight, CREF/GAPDH counter-screens, run 1, dose range 1, individual replicate IC50 per panel
observed.property: IC50 (µM)
API: value field is a number in µM; no unit string.

Cc1nc2c(OCc3ccc(OC(F)F)cc3)cccn2c1N(C)C(=O)CCC1CCCC1 = 28.9
CCCCCCCNC(=O)C1(CC2CC(c3ccccc3)=NO2)CCNCC1 (configuration not stated) = 35.4
CC(C)CC(=NNC(=O)c1ccncc1)c1cc(Cl)ccc1O = 3.35
Cc1ccc(C2=NC(=O)/C(=C/c3cc(O)c(O)c(Br)c3)S2)cc1 = 17.1
FC(F)Sc1ccc(NC(=S)NC(c2ccccc2)c2ccccc2)cc1 = 19.9
CC1(C)CC(NC(=O)c2cccc(S(=O)(=O)N(Cc3ccccc3)c3ccccc3)c2)CC(C)(C)N1 = 18.6
O=C(COc1ccc(Cl)cc1Cl)Nc1ccccn1 = 1.27
COc1cc(OC)c2cc(C(=O)N/N=C/c3ccccc3O)[nH]c2c1 = 4.95
Cc1ccc2sc(N(CCCN(C)C)C(=O)c3ccc(S(=O)(=O)N4CCc5ccccc5C4)cc3)nc2c1C = 15.6
COc1cccc(C(=O)O/N=C(\N)c2ccccn2)c1 = 15.2

Record O=C1c2ccccc2C(=O)C12OC2c1ccc(Cl)cc1Cl (configuration not stated) has PEG-3 IC50 equal to 28.4

// assay PEG-3, entry Cc1ccc2[nH]c3c(c2c1)CCCC3NC(=O)CCl (configuration not stated) , IC50 value = 23.3

GET /values?item= CC(C)n1cc(CN2CCC(C(=O)Nc3cccc(-c4cccc(Cl)c4)c3)CC2)cn1 &system= PEG-3 returns IC50: 17.4

Measured IC50 (PEG-3), entry CN(C)CCCN1c2ccccc2Sc2ccc3ccccc3c21 : 17.7

Bench note, PEG-3: entry COC(=O)C1=C(C)N(Cc2ccccc2)C(=NCCc2c[nH]c3ccccc23)N[C@H]1c1cccc(C(F)(F)F)c1 , its IC50 = 17.8

IC50 for PEG-3 with input O=c1c2c3c(sc2nc(N2CCNCC2)n1CCc1ccccc1)CCCCC3 equals 32.1

====

test system: GAPDH; experiment: Peg3 promoter luciferase inhibitors, potency, dose response, cell-based, HeLa, CREF/GAPDH counter-screen panel (AID 624167); conditions: CREF/GAPDH counter-screens, run 1, dose range 1, individual replicate IC50 per panel
observed.property: IC50

C/C(=N\NC(=O)c1c(C)nc2ccccn12)c1ccc(O)cc1O = > 100 µM

Tested on GAPDH, the item CCCC(=O)NC(c1ccc(C)cc1)c1ccc2cccnc2c1O (stereo not drawn) showed IC50 equal to > 100 µM

Field IC50 (system: GAPDH) for entry COc1cccc(OC)c1C(=O)Nc1cc(C)nn1-c1nc2ccccc2[nH]1 = > 100 µM
